target: RORγ LBD (Homo sapiens (Human), UniProt P51449); experiment: ROR gamma radio-ligand binding assay (3H 25-Hydroxycholesterol competitive displacement, dextran charcoal method); conditions: 10 μM compound
Sequence (P51449 268-518): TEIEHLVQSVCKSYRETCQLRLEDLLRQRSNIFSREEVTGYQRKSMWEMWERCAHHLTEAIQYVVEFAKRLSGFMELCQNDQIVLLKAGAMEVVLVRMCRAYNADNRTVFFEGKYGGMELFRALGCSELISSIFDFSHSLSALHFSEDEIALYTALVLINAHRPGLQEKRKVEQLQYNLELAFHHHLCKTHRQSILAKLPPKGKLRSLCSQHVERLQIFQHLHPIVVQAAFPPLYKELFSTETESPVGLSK
reported.endpoint: inhibition at 10 µM (%)
Number in %, nothing else.

Sample answers from the record:
CCS(=O)(=O)c1ccc(CC(=O)Nc2ccc3c(n2)CC(C)(C)C(c2ncccc2O)C3=O)cc1 (stereo not drawn) = 99
COc1ccc(C2(C)CCc3nc(NC(=O)Cc4ccc(S(C)(=O)=O)cc4)cc(C)c3C2=O)nn1 (stereo not drawn) = 98
CCS(=O)(=O)c1ccc(CC(=O)Nc2cc(C)c3c(n2)CCC(C)(c2ccc(OC)nc2)C3=O)cc1 (stereo not drawn) = 96
CCS(=O)(=O)c1ccc(CC(=O)Nc2cc(C)c3c(n2)CCC(C)(c2nccn4ccnc24)C3=O)cc1 (stereo not drawn) = 99
CCS(=O)(=O)c1ccc(CC(=O)Nc2cc(C)c3c(n2)CCC(C)(c2cccnc2O)C3=O)cc1 (stereo not drawn) = 100
CCS(=O)(=O)c1ccc(CC(=O)Nc2ccc3c(n2)CCC(C)(c2ccnc(C(C)C)n2)C3=O)cc1 (stereo not drawn) = 90
CCS(=O)(=O)c1ccc(CC(=O)Nc2cc3c(cn2)C(=O)C(C)(c2cc(C)nc(C)n2)CC3)cc1 (stereo not drawn) = 110
CCS(=O)(=O)c1ccc(CC(=O)Nc2cc(C)c3c(n2)CCC(C)(c2ncc(OC)cn2)C3=O)cc1 (stereo not drawn) = 74

Q: Using the record for CCS(=O)(=O)c1ccc(CC(=O)Nc2cc(C)c3c(n2)CCC(C)(c2nc(C)cc(C)n2)C3=O)cc1 (stereo not drawn) , state its measured inhibition at 10 µM.
A: 91
